Values compiled from ChEMBL document CHEMBL1201862.

test system: HCT-15
GI50 values by entry
Your answer should be a plain number; it is taken to be in µM.

Qu. Give HCT-15 GI50 for CC(C)=CC[C@H]1C[C@]2(CC=C(C)C)C(=O)[C@@](CC=C(C)C)(C(=O)C(C(=O)c3ccccc3)=C2O)C1(C)C [6-EPI-CLUSIANONE]
Ans. 5.04

Qu. Form field - read-out: GI50; system: HCT-15; submitted item: O=[N+]([O-])c1cccc2nc3ccccc3c(NCCNCCO)c12
Ans. 0.0405

* * *

GI50 for assorted molecules
test system: SNB-75; assay: NCI tumour cell line growth inhibition, 48 h
Active and inactive are the calls of the source. Cut-off read from the data, not from the text of the source: active = GI50 up to about 1.1 µM and inactive = higher.

Recorded results for 8 molecules are shown here.
CCOC(=O)[C@H]1Nc2ccccc2C2c3ccccc3CC21 (stereo partly specified) :: 39.5 µM (inactive)
N#C/C(N)=C(C#N)/N=C/NCc1ccccc1 :: > 100 µM (inactive)
Cc1cccc(C(C)C)c1N1C(=O)C(=O)C(c2nc3ccccc3o2)C(=O)C1=O :: 26.9 µM (inactive)
Cc1ccc(-c2nc3n(c2/C=N\N=C(N)N)CCS3)cc1 :: 10.9 µM (inactive)
CC1OC(n2cc(I)c(=O)[nH]c2=O)C=CC1=O (stereo unspecified) :: 17.2 µM (inactive)
CC(=O)O[C@H]1CC[C@@]2(C)C(=CC[C@@H]3[C@@H]2CC[C@](C)(c2nnc(C)o2)[C@H]3CC#N)C1 :: 51.6 µM (inactive)
CN(C(=O)C12C3C4C1C1C4(C(=O)C45C6C7C4C4C5C6C74C)C3C12C)C(C)(C)C (stereo unspecified) :: > 100 µM (inactive)
C[Si](C)(C)C#Cc1cc(-c2nc3ccccc3s2)ccc1N :: 12.7 µM (inactive)

Qu. Could you share which GI50 value was measured for CNC(=S)N/N=C(\C)c1ccc(OC)cc1O ?
Ans. > 100 µM (inactive)

Qu. Which value of GI50 has been reported for CC12CC[C@H](O)C(C)(C)[C@H]1CC[C@](C)(O)C2COc1ccc2ccc(=O)oc2c1 (stereo partly specified) in the records?
Ans. 62.2 µM (inactive)

Qu. Quick one: GI50 for Cc1cccc(NC(=S)Nc2cccc(Cl)c2)n1 ?
Ans. > 54 µM (inactive)

Qu. Query (molecule): COC(=O)C/N=C1\NC(=S)N(Cc2ccc(OC)cc2)C12CCCC2 ; field requested: GI50
Ans. > 100 µM (inactive)

Qu. Reported GI50, molecule c1ccc2c(c1)SCCCSCCSCCCS2 : ____
Ans. > 100 µM (inactive)

Qu. Which GI50 reading was recorded for the molecule C(=N\N=C1NCCCN1)/c1ccc2ccccc2c1 ?
Ans. 3.97 µM (inactive)
